B1: SFRS1 (parent)
chain: YSPRRSRGSPRYSPRHSRSRSRT

Variants of: B1
Assay: protein stability index of a GFP-peptide fusion (GPS, HEK-293T) (PSI 1-6); higher = more stable;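 note: lentivirally expressed fusions sorted by FACS into six bins by GFP to DsRed ratio, PSI derived from sequencing read proportions per bin multiplied by bin number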
Recorded Conditions: c terminus: native
Would you mind telling me the reported protein stability index of each entry?

For reference, reported protein stability index for `P10N` stands at 4.31

For reference, reported protein stability index for `Y12N` stands at 4.21

For reference, reported protein stability index for `P14G` stands at 4.46

For reference, reported protein stability index for `S17E` stands at 3.9

For reference, reported protein stability index for `R15Q` stands at 3.39

For reference, reported protein stability index for `R15G` stands at 3.9

For reference, reported protein stability index for `P14M` stands at 3.52

For reference, reported protein stability index for `R11K` stands at 3.85

For reference, reported protein stability index for `H16D` stands at 4.05

For reference, reported protein stability index for `P10F` stands at 3.07

For reference, reported protein stability index for `R4W` stands at 2.38

For reference, reported protein stability index for `R18W` stands at 2.93

For reference, reported protein stability index for `Y12L` stands at 4.03

For reference, reported protein stability index for `H16P` stands at 4.35

For reference, reported protein stability index for `S9D` stands at 3.99

For reference, reported protein stability index for `Y12Q` stands at 4.43

For reference, reported protein stability index for `S2Q` stands at 3.98

For reference, reported protein stability index for `S13N` stands at 3.64

For reference, reported protein stability index for `H16V` stands at 3.93

For reference, reported protein stability index for `S9W` stands at 2.29

For reference, reported protein stability index for `S21C` stands at 3.06

For reference, reported protein stability index for `S21M` stands at 3.94

For reference, reported protein stability index for `H16Q` stands at 4.02

For reference, reported protein stability index for `R7Y` stands at 3.38

For reference, reported protein stability index for `R11L` stands at 2.85

For reference, reported protein stability index for `S13H` stands at 3.62

For reference, reported protein stability index for `P10D` stands at 4.25

For reference, reported protein stability index for `R15M` stands at 3.48

For reference, reported protein stability index for `R11G` stands at 3.5

For reference, reported protein stability index for `H16I` stands at 3.95

For reference, reported protein stability index for `P3A` stands at 3.81

For reference, reported protein stability index for `S17W` stands at 3.69

For reference, reported protein stability index for `R18I` stands at 3.43

For reference, reported protein stability index for `S17I` stands at 4.04

For reference, reported protein stability index for `R11E` stands at 2.39

For reference, reported protein stability index for `R15N` stands at 3.34

For reference, reported protein stability index for `Y1K` stands at 4.1

For reference, reported protein stability index for `S6T` stands at 4.02

For reference, reported protein stability index for `S13E` stands at 4.01

For reference, reported protein stability index for `P3H` stands at 4.16

For reference, reported protein stability index for `S21K` stands at 3.79

For reference, reported protein stability index for `H16M` stands at 3.95

For reference, reported protein stability index for `T23P` stands at 4.23

For reference, reported protein stability index for `R22Q` stands at 4.06

For reference, reported protein stability index for `P10W` stands at 3.4

For reference, reported protein stability index for `P14V` stands at 4.03

For reference, reported protein stability index for `R11T` stands at 3.29

For reference, reported protein stability index for `R11M` stands at 3.47

For reference, reported protein stability index for `S13D` stands at 3.72

For reference, reported protein stability index for `S13A` stands at 3.41

For reference, reported protein stability index for `S21L` stands at 3.23

For reference, reported protein stability index for `R5W` stands at 1.84

For reference, reported protein stability index for `R15H` stands at 4.39

For reference, reported protein stability index for `P3W` stands at 3.11

For reference, reported protein stability index for `Y1L` stands at 3.74

For reference, reported protein stability index for `R15A` stands at 3.36

For reference, reported protein stability index for `R22V` stands at 4.05

For reference, reported protein stability index for `S17H` stands at 3.77

For reference, reported protein stability index for `R15L` stands at 3

For reference, reported protein stability index for `Y12T` stands at 4.27

For reference, reported protein stability index for `S21T` stands at 3.34

For reference, reported protein stability index for `P3N` stands at 4.15

For reference, reported protein stability index for `R5H` stands at 4.37

For reference, reported protein stability index for `R22E` stands at 4.25

For reference, reported protein stability index for `S19E` stands at 3.14

For reference, reported protein stability index for `P10Q` stands at 3

For reference, reported protein stability index for `Y1W` stands at 4.08

For reference, reported protein stability index for `S2L` stands at 4.2

For reference, reported protein stability index for `S19M` stands at 2.9

For reference, reported protein stability index for `S2A` stands at 2

For reference, reported protein stability index for `G8M` stands at 3.19

For reference, reported protein stability index for `R18Q` stands at 3.27

For reference, reported protein stability index for `T23D` stands at 3.32

For reference, reported protein stability index for `Y1F` stands at 2.96

For reference, reported protein stability index for `R4A` stands at 2.82

For reference, reported protein stability index for `R20G` stands at 3.79

For reference, reported protein stability index for `P3L` stands at 3.8

For reference, reported protein stability index for `S21I` stands at 3.28

For reference, reported protein stability index for `S19A` stands at 2.98

For reference, reported protein stability index for `G8W` stands at 2.25

For reference, reported protein stability index for `S13Q` stands at 3.76

For reference, reported protein stability index for `H16G` stands at 4.31

For reference, reported protein stability index for `R20Y` stands at 2.9

For reference, reported protein stability index for `P10V` stands at 3.69

For reference, reported protein stability index for `R5G` stands at 3

For reference, reported protein stability index for `R4H` stands at 3.29

For reference, reported protein stability index for `P14D` stands at 3.46

For reference, reported protein stability index for `S21Q` stands at 3.62

For reference, reported protein stability index for `R7G` stands at 2.47

For reference, reported protein stability index for `P3M` stands at 3.58

For reference, reported protein stability index for `G8F` stands at 2.13
